Source: the supplement of paper PMC4466140

Molecular target: CaSho1
Test: SPOT peptide array binding signal intensity (averaged, normalized) (arbitrary units (background-subtracted, floor 0; scale differs between SH3 domains)); higher = stronger binding of the SH3 domain to the peptide
quantityMeasured: SPOT peptide array binding signal intensity

- binder: "VDFTLPPPPPPPGLD"
  reportedMeasurement: "≤ 0"
- binder: "QPPLPSSAPPIPTSH"
  reportedMeasurement: "≤ 0"
- binder: "DDEDVPPQLPTRTKS"
  reportedMeasurement: "≤ 0"
